TEST_TARGET: GSPT1 (Homo sapiens, UniProt P15170+Q96SW2)
Sequence (P15170 whole entry): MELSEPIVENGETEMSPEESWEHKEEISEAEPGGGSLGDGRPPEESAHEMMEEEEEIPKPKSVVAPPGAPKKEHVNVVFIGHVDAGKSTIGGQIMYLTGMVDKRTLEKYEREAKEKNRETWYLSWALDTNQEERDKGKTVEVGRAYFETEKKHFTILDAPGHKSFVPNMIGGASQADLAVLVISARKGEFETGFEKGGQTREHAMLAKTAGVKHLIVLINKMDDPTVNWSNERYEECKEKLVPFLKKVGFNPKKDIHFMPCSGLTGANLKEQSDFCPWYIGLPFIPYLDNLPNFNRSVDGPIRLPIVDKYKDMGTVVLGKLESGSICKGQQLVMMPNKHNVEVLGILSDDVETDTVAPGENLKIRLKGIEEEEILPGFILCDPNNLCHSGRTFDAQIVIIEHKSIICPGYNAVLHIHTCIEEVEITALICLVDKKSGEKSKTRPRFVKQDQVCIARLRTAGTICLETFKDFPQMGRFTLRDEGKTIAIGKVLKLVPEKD
Sequence (Q96SW2 whole entry): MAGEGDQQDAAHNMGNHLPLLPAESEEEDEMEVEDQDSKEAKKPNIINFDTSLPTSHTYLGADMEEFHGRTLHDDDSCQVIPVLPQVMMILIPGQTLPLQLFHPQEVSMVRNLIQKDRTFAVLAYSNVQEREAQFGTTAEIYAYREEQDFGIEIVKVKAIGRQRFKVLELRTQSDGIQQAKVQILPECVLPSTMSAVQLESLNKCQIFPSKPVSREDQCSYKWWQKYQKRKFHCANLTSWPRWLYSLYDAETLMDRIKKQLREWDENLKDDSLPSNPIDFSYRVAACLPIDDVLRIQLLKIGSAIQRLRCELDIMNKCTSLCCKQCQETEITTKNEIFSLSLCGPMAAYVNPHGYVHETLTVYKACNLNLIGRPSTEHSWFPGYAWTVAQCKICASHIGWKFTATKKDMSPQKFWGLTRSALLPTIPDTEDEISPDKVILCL
Sequence (Q16531 whole entry partner): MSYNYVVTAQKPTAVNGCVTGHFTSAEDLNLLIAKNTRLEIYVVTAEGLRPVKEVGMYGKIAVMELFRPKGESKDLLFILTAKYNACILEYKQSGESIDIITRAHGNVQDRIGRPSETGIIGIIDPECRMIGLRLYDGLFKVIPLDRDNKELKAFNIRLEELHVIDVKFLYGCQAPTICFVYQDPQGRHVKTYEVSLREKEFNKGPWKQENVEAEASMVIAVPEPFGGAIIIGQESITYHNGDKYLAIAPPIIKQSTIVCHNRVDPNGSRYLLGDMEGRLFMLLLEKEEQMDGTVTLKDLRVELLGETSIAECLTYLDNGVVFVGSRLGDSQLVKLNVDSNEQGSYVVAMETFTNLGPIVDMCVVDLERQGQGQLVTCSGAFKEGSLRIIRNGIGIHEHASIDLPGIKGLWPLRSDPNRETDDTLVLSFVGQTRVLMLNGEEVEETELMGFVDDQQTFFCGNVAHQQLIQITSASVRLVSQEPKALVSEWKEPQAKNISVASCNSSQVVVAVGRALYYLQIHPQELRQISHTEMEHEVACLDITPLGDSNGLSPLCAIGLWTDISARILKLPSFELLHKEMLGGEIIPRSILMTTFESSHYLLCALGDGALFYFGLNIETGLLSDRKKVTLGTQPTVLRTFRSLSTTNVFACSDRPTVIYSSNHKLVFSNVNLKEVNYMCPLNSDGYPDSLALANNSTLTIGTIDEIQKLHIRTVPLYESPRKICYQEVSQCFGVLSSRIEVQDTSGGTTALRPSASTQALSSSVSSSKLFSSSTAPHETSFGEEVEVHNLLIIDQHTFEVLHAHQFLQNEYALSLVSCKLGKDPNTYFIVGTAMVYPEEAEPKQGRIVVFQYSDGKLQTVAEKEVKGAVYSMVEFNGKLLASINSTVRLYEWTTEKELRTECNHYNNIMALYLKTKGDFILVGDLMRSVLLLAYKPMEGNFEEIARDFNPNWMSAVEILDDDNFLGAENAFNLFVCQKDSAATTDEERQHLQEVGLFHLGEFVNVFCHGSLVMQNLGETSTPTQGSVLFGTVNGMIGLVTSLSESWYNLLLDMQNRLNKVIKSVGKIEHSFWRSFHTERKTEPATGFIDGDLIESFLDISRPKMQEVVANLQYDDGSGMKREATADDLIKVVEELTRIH
PROCEDURE_SUMMARY: Flow cytometry for measuring degradation, HEK293T GFP-POI reporter cells (GSPT1)
Assay type: cell-based
Design: expressed in transfected cells; host or cells: HEK293T
CONDITION_INFO: 100 nM, 24 h, HEK293T GFP reporter
Listed here: items and their measured GSPT1% degradation at 100 nM.
Your answer should be a plain number; it is taken to be in %.

COMPOUND	MEASUREMENT_UNITS	GSPT1% degradation at 100 nM
COc1ccc2c(CC(=O)Nc3ccc4c(c3)CN(C3CCC(=O)NC3=O)C4=O)cccc2c1 (stereo not drawn)	%	29

Q: Consider the compound COc1cc(Br)cc2c1OCC(C(=O)Nc1ccc3c(c1)CN(C1CCC(=O)NC1=O)C3=O)=C2 (stereo not drawn) and give its recorded GSPT1% degradation at 100 nM.
Result: 1.6

Q: Consider the compound COc1cc(Oc2ccccc2)ccc1C(=O)Nc1ccc2c(c1)CN(C1CCC(=O)NC1=O)C2=O (stereo not drawn) and give its recorded GSPT1% degradation at 100 nM.
Result: 0.4

Q: Consider the compound O=C1CCC(N2Cc3cc(NC(=O)c4ccc5c(c4)OCO5)ccc3C2=O)C(=O)N1 (stereo not drawn) and give its recorded GSPT1% degradation at 100 nM.
Result: 5.2

Q: Consider the compound O=C1CCC(N2Cc3cc(NC(=O)c4ccc5ncsc5c4)ccc3C2=O)C(=O)N1 (stereo not drawn) and give its recorded GSPT1% degradation at 100 nM.
Result: −1.7

Q: Consider the compound O=C1CCC(N2Cc3cc(NC(=O)Cc4ccc5ccccc5c4)ccc3C2=O)C(=O)N1 (stereo not drawn) and give its recorded GSPT1% degradation at 100 nM.
Result: 63.1

Q: Consider the compound O=C(/C=C/c1ccccc1)Nc1ccc2c(c1)CN(C1CCC(=O)NC1=O)C2=O (stereo not drawn) and give its recorded GSPT1% degradation at 100 nM.
Result: 7.6

Q: Consider the compound O=C1CCC(N2Cc3cc(NC(=O)C4=Cc5ccc(C(F)(F)F)cc5OC4)ccc3C2=O)C(=O)N1 (stereo not drawn) and give its recorded GSPT1% degradation at 100 nM.
Result: 2.8

Q: Consider the compound O=C1CCC(N2Cc3cc(NC(=O)c4cccc(C(=O)c5ccccc5)c4)ccc3C2=O)C(=O)N1 (stereo not drawn) and give its recorded GSPT1% degradation at 100 nM.
Result: 9

Q: Consider the compound CSc1ccc2cc(C(=O)Nc3ccc4c(c3)CN(C3CCC(=O)NC3=O)C4=O)ccc2c1 (stereo not drawn) and give its recorded GSPT1% degradation at 100 nM.
Result: 16.3

Q: Consider the compound COc1ccc(Oc2cccc(C(=O)Nc3ccc4c(c3)CN(C3CCC(=O)NC3=O)C4=O)c2)cc1 (stereo not drawn) and give its recorded GSPT1% degradation at 100 nM.
Result: 12.5

Q: Consider the compound CN1C(=O)CCc2cc(C(=O)Nc3ccc4c(c3)CN(C3CCC(=O)NC3=O)C4=O)ccc21 (stereo not drawn) and give its recorded GSPT1% degradation at 100 nM.
Result: 1.6

Q: Consider the compound O=C1CCC(N2Cc3cc(NC(=O)C4=Cc5ccc(Br)cc5OC4)ccc3C2=O)C(=O)N1 (stereo not drawn) and give its recorded GSPT1% degradation at 100 nM.
Result: 21.8
